# Tested on: BV-2
# Protocol description: Antiinflammatory activity in LPS induced mouse BV-2 cells assessed as NO production at 10 uM by Griess reagent based assay relative to control
Rule: level, % of control at 10 µM below 80% gives T. Equal to or above 80% gives F.

Illustrative cases are given below, each with its answer.
Smiles record | Tested target | Class label
COc1c2n(cc(C(=O)Nc3cccc(-c4cn(-c5ccc(C(F)(F)F)cc5)nn4)c3)c1=O)C[C@H]1OC[C@H](C)N1C2=O | BV-2 | F
COc1c2n(cc(C(=O)Nc3ccc(-c4cn(-c5cccc(C(F)(F)F)c5)nn4)cc3)c1=O)C[C@@H]1OCC[C@@H](C)N1C2=O | BV-2 | F
COc1c2n(cc(C(=O)Nc3cccc(-c4cn(-c5cc(C(F)(F)F)ccc5C(F)(F)F)nn4)c3)c1=O)C[C@@H]1OCC[C@@H](C)N1C2=O | BV-2 | T

**Query** Here's an entry: COc1c2n(cc(C(=O)Nc3cccc(-c4cn(-c5ccccc5F)nn4)c3)c1=O)C[C@H]1OC[C@H](C)N1C2=O . Is its level, % of control at 10 µM below 80%?
**Result** F

**Query** Here's an entry: COc1ccccc1-n1cc(-c2ccc(NC(=O)c3cn4c(c(OC)c3=O)C(=O)N3[C@H](C)CCO[C@H]3C4)cc2)nn1 . Is its level, % of control at 10 µM below 80%?
**Result** F

----------
For each of the compounds below, state its viability at 1 µM.
# Protocol description: Cytotoxicity against mouse BV-2 cells assessed as cell viability at 1 uM by MTT assay relative to control
# Format: toxicity, cell-based
# Conditions used: read-out: Activity
One number for each entry, in %.

In the examples that follow, each entry is paired with its recorded viability at 1 µM.
Smiles record | viability at 1 µM (%)
CCc1ccccc1-n1cc(-c2cccc(NC(=O)c3cn4c(c(OC)c3=O)C(=O)N3[C@@H](C)CO[C@@H]3C4)c2)nn1 | 99.3
COc1c2n(cc(C(=O)Nc3cccc(-c4cn(-c5cc(C(F)(F)F)ccc5C(F)(F)F)nn4)c3)c1=O)C[C@H]1OC[C@H](C)N1C2=O | 91.9
COc1ccccc1-n1cc(-c2ccccc2NC(=O)c2cn3c(c(OC)c2=O)C(=O)N2[C@H](C)CCO[C@H]2C3)nn1 | 102
COc1c2n(cc(C(=O)Nc3cccc(-c4cn(-c5ccccc5I)nn4)c3)c1=O)C[C@H]1OC[C@H](C)N1C2=O | 99.8
COc1c2n(cc(C(=O)Nc3cccc(-c4cn(-c5ccccc5C(F)(F)F)nn4)c3)c1=O)C[C@H]1OC[C@H](C)N1C2=O | 97.4
COc1c2n(cc(C(=O)Nc3ccc(-c4cn(-c5cc(C(F)(F)F)cc(C(F)(F)F)c5)nn4)cc3)c1=O)C[C@@H]1OCC[C@@H](C)N1C2=O | 105

Okay, next one:
Looking up CCc1ccccc1-n1cc(-c2ccc(NC(=O)c3cn4c(c(OC)c3=O)C(=O)N3[C@H](C)CCO[C@H]3C4)cc2)nn1 , I found its viability at 1 µM recorded as 110

----------
For each of the compounds below, state its viability at 1 µM.
# Protocol description: Cytotoxicity against mouse BV-2 cells assessed as cell viability at 1 uM by MTT assay relative to control
# Format: toxicity, cell-based
# Conditions used: read-out: Activity
One number for each entry, in %.

In the examples that follow, each entry is paired with its recorded viability at 1 µM.
Smiles record | Reported metric | Unit tag | Observed value
COc1c2n(cc(C(=O)Nc3cccc(-c4cn(-c5ccccc5C(F)(F)F)nn4)c3)c1=O)C[C@@H]1OCC[C@@H](C)N1C2=O | viability at 1 µM | % | 60.6
COc1c2n(cc(C(=O)Nc3cccc(-c4cn(-c5ccc(F)cc5)nn4)c3)c1=O)C[C@H]1OC[C@H](C)N1C2=O | viability at 1 µM | % | 109
COc1c2n(cc(C(=O)Nc3cccc(-c4cn(-c5cc(C(F)(F)F)cc(C(F)(F)F)c5)nn4)c3)c1=O)C[C@H]1OC[C@H](C)N1C2=O | viability at 1 µM | % | 97.1
COc1c2n(cc(C(=O)Nc3cccc(-c4cn(-c5ccccc5F)nn4)c3)c1=O)C[C@H]1OC[C@H](C)N1C2=O | viability at 1 µM | % | 91.9
COc1c2n(cc(C(=O)Nc3cccc(-c4cn(-c5cc(C(F)(F)F)cc(C(F)(F)F)c5)nn4)c3)c1=O)C[C@@H]1OCC[C@@H](C)N1C2=O | viability at 1 µM | % | 108
COc1c2n(cc(C(=O)Nc3ccc(-c4cn(-c5ccc(C(F)(F)F)cc5)nn4)cc3)c1=O)C[C@@H]1OCC[C@@H](C)N1C2=O | viability at 1 µM | % | 53.1

Okay, next one:
Looking up COc1c2n(cc(C(=O)Nc3cccc(-c4cn(-c5ccccc5)nn4)c3)c1=O)C[C@H]1OC[C@H](C)N1C2=O , I found its viability at 1 µM recorded as 111
